Values compiled from patent US9115133B2.

Record form. Attribute: pIC50. Fill in for each entry.
- ASSAY SYSTEM: Recombinant JAK3 (Amino acids 781-1124) (Homo sapiens, UniProt P52333)
- Construct: JAK3 (Amino acids 781-1124; NM_000215.3)
- Sequence (P52333 781-1124): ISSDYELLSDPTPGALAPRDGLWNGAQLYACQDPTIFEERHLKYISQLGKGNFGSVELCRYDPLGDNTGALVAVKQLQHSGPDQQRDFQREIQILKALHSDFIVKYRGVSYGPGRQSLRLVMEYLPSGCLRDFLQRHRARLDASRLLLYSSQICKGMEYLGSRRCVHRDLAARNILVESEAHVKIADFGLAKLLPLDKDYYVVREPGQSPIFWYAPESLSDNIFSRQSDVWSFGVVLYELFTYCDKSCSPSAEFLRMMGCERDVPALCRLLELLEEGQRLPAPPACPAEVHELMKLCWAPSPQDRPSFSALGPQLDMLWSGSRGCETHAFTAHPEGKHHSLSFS
- EXPERIMENTAL DETAILS: Kinase-Glo Luminescent Kinase Assay, recombinant JAK3
- EXPERIMENTAL CONDITIONS: 200 μg/ml Poly Glu-Tyr (4:1), ATP 1 uM, 90 min room temperature, luminescence
pIC50: −log10 of the molar value.

query: Any idea what its pIC50 is? The compound is O=C(NC1CC1)[C@@H]1CCCN(c2ccnc3cnc4[nH]ccc4c23)C1 [Ex. 61B]
result: < 7.70

query: Similarly, O=C(NCC(F)(F)F)C1CCN(c2ccnc3cnc4[nH]ccc4c23)CC1 ?
result: < 7.70

query: Similarly, N#CCS(=O)(=O)N1CCC(c2ccnc3cnc4[nH]ccc4c23)C1 (stereo not shown) ?
result: < 7.70

query: Similarly, CC(C)CS(=O)(=O)NC1CCN(c2ccnc3cnc4[nH]ccc4c23)C1 (stereo not shown) ?
result: < 7.70

query: Similarly, O=C(NC1CCCN(c2ccnc3cnc4[nH]ccc4c23)C1)C1CC1 (stereo not shown) ?
result: < 7.70

query: Similarly, CS(=O)(=O)N1CCCC(c2ccnc3cnc4[nH]ccc4c23)C1 (stereo not shown) ?
result: 7.70 to 9.00

query: Similarly, CC1CCC(C(=O)NC2CC2)CN1c1ccnc2cnc3[nH]ccc3c12 (single isomer, unassigned) [Ex. 88A] ?
result: 7.70 to 9.00

query: Similarly, CNC(=O)C1CCCN(c2ccnc3cnc4[nH]ccc4c23)C1 (stereo not shown) ?
result: < 7.70

query: Similarly, O=C(CC(F)(F)F)N1CC=C(c2ccnc3cnc4[nH]ccc4c23)C1 ?
result: < 7.70

query: Similarly, CC1CCC(C(=O)NC2CC2)CN1c1ccnc2cnc3[nH]ccc3c12 (single isomer, unassigned) [Ex. 88B] ?
result: 7.70 to 9.00

query: Similarly, CC(C)S(=O)(=O)NC1CCN(c2ccnc3cnc4[nH]ccc4c23)C1 (stereo not shown) ?
result: < 7.70

query: Similarly, O=C(NC1CC1)N1CCCC(c2ccnc3cnc4[nH]ccc4c23)C1 (stereo not shown) ?
result: < 7.70

query: Similarly, CN(CC(F)(F)F)C(=O)C1CCCN(c2ccnc3cnc4[nH]ccc4c23)C1 (stereo not shown) ?
result: 7.70 to 9.00

query: Similarly, CCS(=O)(=O)N1CCCC(c2ccnc3cnc4[nH]ccc4c23)C1 (stereo not shown) ?
result: 7.70 to 9.00

query: Similarly, c1cc(N2CCCC(N3CCOCC3)C2)c2c(cnc3[nH]ccc32)n1 (stereo not shown) ?
result: < 7.70

query: Similarly, CC(C)CC(=O)N1CCCC(c2ncnc3cnc4[nH]ccc4c23)C1 (stereo not shown) ?
result: < 7.70

query: Similarly, CCOC(=O)c1cnc2cnc3c(ccn3S(=O)(=O)c3ccc(C)cc3)c2c1O ?
result: < 7.70

query: Similarly, CN(C(=O)CC(F)(F)F)C1CCCN(c2ccnc3cnc4[nH]ccc4c23)C1 (stereo not shown) ?
result: < 7.70

query: Similarly, CC(C)CS(=O)(=O)N1CCC(c2ncnc3cnc4[nH]ccc4c23)C1 (stereo not shown) ?
result: < 7.70
